Property: Neural function scores (Mean ± SD); scope: individual substances
# System: rats with stroke
# ASSAY NAME: Immediate treatment after stroke onset, neural function scores (Zealonga method, 0 no loss to 5 death)
# Format: in vivo, SD rats
# EXPERIMENTAL SETUP: 0.1 μmol/kg, 24 h after awake, n = 10
Marks after values point to notes of the source that are not given here. Side chains are listed from the residue outwards. Ends that are not written are not given here.

Solved cases below.
1,3-dioxo-2-{4′-oxyacetyl-[N^ω-(Arg-Pro-Ala-Lys)-Lys-Arg-Gly-Asp-Phe]phenyl}-4,4,5,5-tetramethylimidazoline [Ii] ... 0.87 ± 1.05 ^c
1,3-dioxo-2-{4′-oxyacetyl-[N^ω-(Pro-Ala-Lys)-Lys-Arg-Gly-Asp-Phe]phenyl}-4,4,5,5-tetramethylimidazoline (K([Lys-Ala-Pro])RGDF; not fully specified (N-terminus); also: 4′-oxyacetylphenyl-1,3-dioxo-4,4,5,5-tetramethylimidazoline (nitronyl nitroxide) conjugate, attachment amine not clear) [Il] ... 0.50 ± 0.53 ^c
1,3-dioxo-2-{4′-oxyacetyl-[N^ω-(Gly-Arg-Pro-Ala-Lys)-Lys-Arg-Gly-Asp-Phe]phenyl}-4,4,5,5-tetramethylimidazoline [If] ... 0.60 ± 0.84 ^c
1,3-dioxo-2-{4′-oxyacetyl-[N^ω-(Ala-Arg-Pro-Ala-Lys)-Lys-Arg-Gly-Asp-Phe]phenyl}-4,4,5,5-tetramethylimidazoline [Ic] ... 0.89 ± 1.36 ^c

Query: Neural function scores (Mean ± SD); subject: 1,3-dioxo-2-{4′-oxyacetyl-[N^ω-(Arg-Pro-Ala-Lys)-Lys-Arg-Gly-Asp-Ser]phenyl}-4,4,5,5-tetramethylimidazoline [Ig] 1.00 ± 1.19 ^b

Query: Neural function scores (Mean ± SD); subject: 1,3-dioxo-2-{4′-oxyacetyl-[N^ω-(Pro-Ala-Lys)-Lys-Arg-Gly-Asp-Ser]phenyl}-4,4,5,5-tetramethylimidazoline (K([Lys-Ala-Pro])RGDS; not fully specified (N-terminus); also: 4′-oxyacetylphenyl-1,3-dioxo-4,4,5,5-tetramethylimidazoline (nitronyl nitroxide) conjugate, attachment amine not clear) [Ij] 0.90 ± 1.10 ^c

====

Property: Neural function scores (Mean ± SD); scope: individual substances
# System: rats with stroke
# ASSAY NAME: Immediate treatment after stroke onset, neural function scores (Zealonga method, 0 no loss to 5 death)
# Assay type: in vivo, SD rats
# EXPERIMENTAL SETUP: 0.1 μmol/kg, 24 h after awake, n = 10
Marks after values point to notes of the source that are not given here. Side chains are listed from the residue outwards. Ends that are not written are not given here.

Solved cases below.
1,3-dioxo-2-{4′-oxyacetyl-[N^ω-(Ala-Arg-Pro-Ala-Lys)-Lys-Arg-Gly-Asp-Val]phenyl}-4,4,5,5-tetramethylimidazoline [Ib] ... 0.56 ± 1.01 ^c
1,3-dioxo-2-{4′-oxyacetyl-[N^ω-(Pro-Ala-Lys)-Lys-Arg-Gly-Asp-Val]phenyl}-4,4,5,5-tetramethylimidazoline (K([Lys-Ala-Pro])RGDV; not fully specified (N-terminus); also: 4′-oxyacetylphenyl-1,3-dioxo-4,4,5,5-tetramethylimidazoline (nitronyl nitroxide) conjugate, attachment amine not clear) [Ik] ... 0.56 ± 0.53 ^c
1,3-dioxo-2-{4′-oxyacetyl-[N^ω-(Ala-Arg-Pro-Ala-Lys)-Lys-Arg-Gly-Asp-Ser]phenyl}-4,4,5,5-tetramethylimidazoline [Ia] ... 1.00 ± 1.01 ^b
1,3-dioxo-2-{4′-oxyacetyl-[N^ω-(Arg-Pro-Ala-Lys)-Lys-Arg-Gly-Asp-Val]phenyl}-4,4,5,5-tetramethylimidazoline [Ih] ... 1.33 ± 1.22 ^b

Let us move to another entry and its Neural function scores (Mean ± SD).
Query: Neural function scores (Mean ± SD); subject: 1,3-dioxo-2-{4′-oxyacetyl-[N^ω-(Gly-Arg-Pro-Ala-Lys)-Lys-Arg-Gly-Asp-Ser]phenyl}-4,4,5,5-tetramethylimidazoline 1.22 ± 1.32 ^b
